System: Plasmodium berghei
Assay: Antimalarial activity against Plasmodium berghei KBG 173 infected in ICR/HA Swiss mouse assessed as increase in mean survival time at 640 mg/kg, sc administered 72 hrs post infection
Assay type: functional
Settings: route subcutaneous
Consider the following partition of reported MST into named classes: 1 (below 0.6 days), 2 (0.6 days to below 7 days), 3 (7 days or more)

>>> class_name("C/C(=N\\NC(=S)NCc1cccc(F)c1)c1ccccn1")
3
>>> class_name("C/C(=N\\NC(=S)Nc1ccc(Cl)cc1)c1ccccn1")
3
>>> class_name("C/C(=N\\NC(=S)NC12CC3CC(CC(C3)C1)C2)c1ccccn1")
3
>>> class_name("CC/C(=N\\NC(=S)NC12CC3CC(CC(C3)C1)C2)c1ccccn1")
3
>>> class_name("C/C(=N\\N=C(/S)NCc1ccccc1)c1ccccn1")
3
>>> class_name("CCc1ccc(NC(=S)N/N=C(\\C)c2ccccn2)cc1")
2
>>> class_name("C/C(=N\\NC(=S)NC1CCCCCCC1)c1ccccn1")
3
>>> class_name("C/C(=N\\NC(=S)NCc1cccc(Cl)c1)c1ccccn1")
1

Exercise: Assign a category based on measured MST for `C/C(=N\NC(=S)Nc1ccc(S(=O)(=O)c2ccc(NC(=S)N/N=C(\C)c3ccccn3)cc2)cc1)c1ccccn1` and give only the class name.
Key: 1

Exercise: Next entry: `COc1cc(NC(=S)N/N=C(\C)c2ccccn2)c2nccc(C)c2c1`
Key: 1

Exercise: Next entry: `C/C(=N\NC(=S)Nc1cc(Cl)cc(Cl)c1)c1ccccn1`
Key: 1

Exercise: Next entry: `C/C(=N\NC(=S)Nc1cccc([N+](=O)[O-])c1)c1ccccn1`
Key: 1

Exercise: Next entry: `COc1ccc(NC(=S)N/N=C(\C)c2ccccn2)cc1`
Key: 2

Exercise: Next entry: `CC/C(=N\NC(=S)Nc1ccc(Br)cc1)c1ccccn1`
Key: 2

Exercise: Next entry: `C/C(=N\NC(=S)Nc1ccccc1C)c1ccccn1`
Key: 3

Exercise: Next entry: `C/C(=N\NC(=S)Nc1cc(Cl)c(Cl)cc1Cl)c1ccccn1`
Key: 1

Exercise: Next entry: `CCc1ccccc1NC(=S)N/N=C(\C)c1ccccn1`
Key: 2

====

Test system: Plasmodium berghei
Experiment: Antimalarial activity against Plasmodium berghei KBG 173 infected in ICR/HA Swiss mouse assessed as increase in mean survival time at 160 mg/kg, sc administered 72 hrs post infection
Format: functional
Conditions: route subcutaneous
Entries and their measured MST follow.
Write it as a number; the unit days goes unstated.

Field: example entries. Status: answers known.
>>> observed_result("C/C(=N\\NC(=S)Nc1ccc(C)cc1)c1ccccn1")
4.5
>>> observed_result("C/C(=N\\NC(=S)Nc1ccc(Cl)c(Cl)c1Cl)c1ccccn1")
0.1
>>> observed_result("C/C(=N\\NC(=S)Nc1ccc(Br)cc1)c1ccccn1")
0.3

Exercise: Given the entry `COc1cccc(CNC(=S)N/N=C(\C)c2ccccn2)c1` , report its measured MST.
Key: 0.9

Exercise: Next entry: `CCOC(=O)c1ccc(NC(=S)N/N=C(\CC)c2ccccn2)cc1`
Key: 0.5

Exercise: Next entry: `C/C(=N\NC(=S)Nc1ccccc1Cl)c1ccccn1`
Key: 2.3

Exercise: Next entry: `C/C(=N\NC(=S)Nc1ccccc1)c1ccccn1`
Key: 11.1

Exercise: Next entry: `C/C(=N\NC(=S)N1CC1)c1ccccn1`
Key: 0.1

Exercise: Next entry: `C/C(=N\NC(=S)NCc1ccc(Cl)c(Cl)c1)c1ccccn1`
Key: 0.5

Exercise: Next entry: `CCOC(=O)CNC(=S)N/N=C(\C)c1ccccn1`
Key: 0.1

Exercise: Next entry: `C/C(=N\NC(=S)Nc1ccccc1[N+](=O)[O-])c1ccccn1`
Key: 0.9

Exercise: Next entry: `COc1ccc(NC(=S)N/N=C(\C)c2ccccn2)nn1`
Key: 0.1

Exercise: Next entry: `COc1ccc(CNC(=S)N/N=C(\C)c2ccccn2)cc1`
Key: 2.9

Exercise: Next entry: `C/C(=N\NC(=S)Nc1cccc([N+](=O)[O-])c1)c1ccccn1`
Key: -0.3

Exercise: Next entry: `C/C(=N\NC(=S)NCc1ccc(C)cc1)c1ccccn1`
Key: 4.3

Exercise: Next entry: `C/C(=N\NC(=S)NCc1cccc(C)c1)c1ccccn1`
Key: 0.7

Exercise: Next entry: `C/C(=N\NC(=S)Nc1ccc(S(=O)(=O)c2ccc(NC(=S)N/N=C(\C)c3ccccn3)cc2)cc1)c1ccccn1`
Key: 0.1

====

Entries and their measured MST follow.
Tested on: Plasmodium berghei
Test: Antimalarial activity against Plasmodium berghei KBG 173 infected in ICR/HA Swiss mouse assessed as increase in mean survival time at 640 mg/kg, sc administered 72 hrs post infection
Format: functional
Conditions: route subcutaneous
Dear colleague, please send the value followed by its unit.

Field: example entries. Status: answers known.
>>> observed_result("CCOC(=O)c1ccc(NC(=S)N/N=C(\\C)c2ccccn2)cc1")
"0.6 days"
>>> observed_result("C/C(=N\\NC(=S)NCc1ccc(Cl)cc1)c1ccccn1")
"6.9 days"
>>> observed_result("C/C(=N\\NC(=S)Nc1ccccc1[N+](=O)[O-])c1ccccn1")
"4.5 days"

Exercise: Param readout = MST; param system = Plasmodium berghei; param query = `C/C(=N\NC(=S)Nc1ccc(O)cc1)c1ccccn1` ; response: value
Key: 0.6 days

Exercise: Next entry: `CCOC(=O)CNC(=S)N/N=C(\CC)c1ccccn1`
Key: 0.5 days

Exercise: Next entry: `COc1ccc(CNC(=S)N/N=C(\C)c2ccccn2)cc1`
Key: 7.9 days

Exercise: Next entry: `COc1cccc(NC(=S)N/N=C(\C)c2ccccn2)c1`
Key: 9.6 days

Exercise: Next entry: `C/C(=N\NC(=S)Nc1ccc(Cl)cc1Cl)c1ccccn1`
Key: 0.7 days

Exercise: Next entry: `C/C(=N\NC(=S)Nc1ccccn1)c1ccccn1`
Key: 8.1 days

Exercise: Next entry: `C/C(=N\NC(=S)NCc1ccncc1)c1ccccn1`
Key: 0 days

Exercise: Next entry: `CC/C(=N\NC(=S)Nc1ccccc1Cl)c1ccccn1`
Key: 0.3 days

Exercise: Next entry: `CCCCc1ccc(NC(=S)N/N=C(\C)c2ccccn2)cc1`
Key: 9.9 days

Exercise: Next entry: `C/C(=N\NC(=S)Nc1ccccc1Br)c1ccccn1`
Key: 0.9 days

Exercise: Next entry: `C/C(=N\NC(=S)Nc1ccncc1)c1ccccn1`
Key: 0.9 days

Exercise: Next entry: `COc1ccccc1CNC(=S)N/N=C(\C)c1ccccn1`
Key: 6.9 days

Exercise: Next entry: `C/C(=N\NC(=S)Nc1c(Cl)cccc1Cl)c1ccccn1`
Key: 0.1 days

Exercise: Next entry: `C/C(=N\NC(=S)NCc1cccc(C)c1)c1ccccn1`
Key: 6.5 days

Exercise: Next entry: `C/C(=N\NC(=S)Nc1cccc(Cl)c1Cl)c1ccccn1`
Key: 0.6 days

Exercise: Next entry: `COc1ccc(NC(=S)N/N=C(\C)c2ccccn2)nn1`
Key: 0.2 days

Exercise: Next entry: `CCOC(=O)CNC(=S)N/N=C(\C)c1ccccn1`
Key: 0.3 days

Exercise: Next entry: `CCOC(=O)c1ccc(NC(=S)N/N=C(\CC)c2ccccn2)cc1`
Key: 0.5 days

Exercise: Next entry: `C/C(=N\NC(=S)Nc1c(C)cccc1C)c1ccccn1`
Key: 11.4 days

Exercise: Next entry: `C/C(=N\NC(=S)NC(C)(C)CC(C)(C)C)c1ccccn1`
Key: 8.7 days

====

Test system: Plasmodium berghei
Assay: Antimalarial activity against Plasmodium berghei KBG 173 infected in ICR/HA Swiss mouse assessed as increase in mean survival time at 640 mg/kg, sc administered 72 hrs post infection
Type: functional
Settings: route subcutaneous
Measured quantity: MST (days)
Write it as a number; the unit days goes unstated.

>>> observed_result("CC/C(=N\\NC(=S)NC(c1ccccc1)(c1ccccc1)c1ccccc1)c1ccccn1")
0.3
>>> observed_result("COc1ccccc1NC(=S)N/N=C(\\C)c1ccccn1")
6.6

Please look at the following molecule next.
Exercise: Given the entry `C/C(=N\NC(=S)NCc1ccccc1C)c1ccccn1` , report its measured MST.
Key: 8.9
